B1: CHMP4C (parent)
chain: SSKSRAAPSPQEALVRLRETEEML

Variants of: B1
Experiment: protein stability index of a GFP-peptide fusion (GPS, HEK-293T) (PSI 1-6); higher = more stable;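 further: lentivirally expressed fusions sorted by FACS into six bins by GFP to DsRed ratio, PSI derived from sequencing read proportions per bin multiplied by bin number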
Experimental Setup: c terminus: a fixed tail appended
Entries annotated with measured protein stability index
Readout Kind: protein stability index

Residues: SSKSRAAPSPQEALVRLRETEIML [E22I]
Result: 2.92
//
Residues: SSKSRAAPSPQLALVRLRETEEML [E12L]
Result: 3.27
//
Residues: SSKSRAAPSPQEQLVRLRETEEML [A13Q]
Result: 4.8
//
Residues: SSKSRAAPSPQEALVRLRETTEML [E21T]
Result: 2.81
//
Residues: SSKSRAAPSVQEALVRLRETEEML [P10V]
Result: 1.81
//
Residues: SSKSRAAPSPQEALVRLRWTEEML [E19W]
Result: 2.36
//
Residues: SSKSRAAPSPQEALVRLHETEEML [R18H]
Result: 5.68
//
Residues: SSKSRAAPSPQEYLVRLRETEEML [A13Y]
Result: 2.3
//
Residues: SSKSRAAPSPQEALVRIRETEEML [L17I]
Result: 1.76
//
Residues: SSKSRAAPSPQEALVGLRETEEML [R16G]
Result: 3.79
//
Residues: SSKSRAKPSPQEALVRLRETEEML [A7K]
Result: 1.45
//
Residues: SSKSRAAPSPQEALKRLRETEEML [V15K]
Result: 2.48
//
Residues: SSKSRAAPSPQKALVRLRETEEML [E12K]
Result: 4.3
//
Residues: SSKSRAAPDPQEALVRLRETEEML [S9D]
Result: 1.51
//
Residues: SSKSRAAPSPQEALVRLRETEEYL [M23Y]
Result: 1.41
//
Residues: SSKSRAAPVPQEALVRLRETEEML [S9V]
Result: 3.85
//
Residues: SSKSRAAPSPQEALVRLRCTEEML [E19C]
Result: 2.66
//
Residues: SSKSRAAPSPQEALVRLREPEEML [T20P]
Result: 5.12
//
Residues: SSKSRAAPSPQEALVRLRETEEMY [L24Y]
Result: 3.64
//
Residues: SSKSRAAPSPQEALVRLRSTEEML [E19S]
Result: 3.01
//
Residues: SSKSRAAPSPQEALVRLRQTEEML [E19Q]
Result: 1
//
Residues: SSKSRAAPSPQEALVRLRATEEML [E19A]
Result: 2.6
//
Residues: SSKSRAAPSPQEALVRLRETEGML [E22G]
Result: 2.44
//
Residues: SSKSRAAPSPQEALVRLRETGEML [E21G]
Result: 3.63
//
Residues: SSKSRAAPSPQEALVRLRPTEEML [E19P]
Result: 4.63
//
Residues: SSKSRRAPSPQEALVRLRETEEML [A6R]
Result: 1.96
//
Residues: SSKSRAAPSPQEALVDLRETEEML [R16D]
Result: 1.98
//
Residues: SSKSRAAPSPQEALVRLRETEESL [M23S]
Result: 3.95
